Exercise: for every item that follows, state its recorded Residual Rate of active substance, Immediately after Preparation.
assay: Residual rate of the active substance in monomer solution (HPLC); type: physicochemical; details: monomer: Acrylic Acid; 3 parts per 100 parts monomer
Response body: numeric value in % by weight, unit text excluded.

I am curious: what Residual Rate of active substance, Immediately after Preparation value has been reported for CC(C)(C)NCC(O)c1ccccc1Cl (stereo not shown) ?
100

Item: COc1ccc2c(c1)c(CC(=O)O)c(C)n2C(=O)c1ccc(Cl)cc1
100

Item: O=[N+]([O-])O[C@H]1CO[C@H]2[C@@H]1OC[C@H]2O[N+](=O)[O-] [ISDN, isosorbide dinitrate]
100

Item: COc1ccc(OC)c(C(O)CN)c1 (stereo not shown)
99

###

assay: Solvency of the active substance in monomer (visual inspection); assay type: physicochemical; design: key: Excellent: The active substance was not found to have been precipitated in the solution of active substance both immediately after the preparation and after the preservation for 7 days.; Good: The active substance was found to have been precipitated in the solution of active substance immediately after the preparation, but the active substance was not found to have been precipitated in the solution of active substance after the preservation for 7 days.; Poor: The active substance was found to have been precipitated in the solution of active substance both immediately after the preparation and after the preservation for 7 days; settings: monomer: 2-Ethylhexyl Acrylate; 3 parts active substance per 100 parts monomer; 25° C., 7 days
PROPERTY: Solvency of active substance

COMPOUND	RESULT
COc1ccc2c(c1)c(CC(=O)O)c(C)n2C(=O)c1ccc(Cl)cc1	Poor
O=[N+]([O-])O[C@H]1CO[C@H]2[C@@H]1OC[C@H]2O[N+](=O)[O-] [ISDN, isosorbide dinitrate]	Excellent
COc1ccc(OC)c(C(O)CN)c1 (stereo not shown)	Poor
CC(C)(C)NCC(O)c1ccccc1Cl (stereo not shown)	Excellent

###

Exercise: for every item that follows, state its recorded Residual Rate of active substance, Immediately after Preparation.
assay: Residual rate of the active substance in monomer solution (HPLC); format: physicochemical; conditions: monomer: Butyl Methacrylate; 3 parts per 100 parts monomer
Show the value, then the unit it is measured in.

I am curious: what Residual Rate of active substance, Immediately after Preparation value has been reported for O=[N+]([O-])O[C@H]1CO[C@H]2[C@@H]1OC[C@H]2O[N+](=O)[O-] [ISDN, isosorbide dinitrate] ?
100 % by weight

Item: COc1ccc(OC)c(C(O)CN)c1 (stereo not shown)
98 % by weight

Item: CC(C)(C)NCC(O)c1ccccc1Cl (stereo not shown)
100 % by weight

Item: COc1ccc2c(c1)c(CC(=O)O)c(C)n2C(=O)c1ccc(Cl)cc1
100 % by weight
